System: MARIMO;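 note: after 48 h exposure read by CellTiter-Glo luminescence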
assay-name: cell viability relative to vehicle control; higher = less cytotoxic
test-conditions: 10 µM; SRSF2 genotype: SRSF2 wt/wt
Counter-ions that a name gives are not always drawn.
cell viability values, listed per item
Please append the unit to your numeric answer.

Please review the entries below; each comes with its answer.
1. CC(C)(CO)C(O)C(=O)NCCC(=O)O [Calcium D-Panthotenate] ... 105%
2. Oc1ccc([C@H]2COc3cc(O)ccc3C2)cc1 ... 104%

Fill in: cell viability of CC(C)NCC(O)COc1cccc2ccccc12 (stereo not drawn) [Propranolol HCl] is ___
92.9%

Please answer likewise for O=c1sn(-c2cccc3ccccc23)c(=O)n1Cc1ccccc1
79.9%

Also, C=CC(=O)N1CCC(Oc2cc3c(Nc4ccc(Cl)c(Cl)c4F)ncnc3cc2OC)CC1 [Poziotinib (HM781-36B)] please.
72.6%

Also, CC(C)=CCC/C(C)=C/CC/C(C)=C/CCC(=O)OC/C=C(\C)CCC=C(C)C [Gefarnate] please.
110%

Also need O=C(Cn1cnnn1)N[C@@H]1C(=O)N2C(C(=O)O)=C(CSc3nncs3)CS[C@H]12 , thanks.
105%

Another: CC(C)(Sc1cc(C(C)(C)C)c(O)c(C(C)(C)C)c1)Sc1cc(C(C)(C)C)c(O)c(C(C)(C)C)c1
105%

====

cell viability values for the compounds below.
System: MARIMO;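 note: after 48 h exposure read by CellTiter-Glo luminescence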
assay-name: cell viability relative to vehicle control; higher = less cytotoxic
test-conditions: 10 µM; SRSF2 genotype: SRSF2 P95H/wt
State just the number; it will be interpreted in %.

Example entries and their recorded answers appear below.
1. C=C1CCC2C(C)(COC(=O)CCC(=O)O)C(OC(=O)CCC(=O)O)CCC2(C)C1C=CC1=CCOC1=O (centres undefined) [Dehydroandrographolide Succinate] ... 101
2. COc1ccc(-c2ccc3cc(C(=O)O)ccc3c2)cc1C12CC3CC(CC(C3)C1)C2 ... 45.3
3. Nc1c(CC(=O)O)cccc1C(=O)c1ccccc1 [Amfenac Sodium (monohydrate)] ... 94.7
4. O=C(Nc1nc2cccc(-c3ccc(CN4CCS(=O)(=O)CC4)cc3)n2n1)C1CC1 ... 71.2
5. O=C(NS(=O)(=O)c1ccc(Br)s1)c1ccc(Cl)cc1Cl ... 97
6. CCCC(=O)Nc1cccc(NC(=O)c2ccccc2Br)c1 ... 97.8

Hello, I am looking for reported cell viability with MARIMO for c1ccc(-c2nn3c(c2-c2ccnc4cc(OCCN5CCOCC5)ccc24)CCC3)nc1 . Could you help?
106

Same question, C[C@@H]1COCCN1c1cc(-c2ccnn2C)c2ccnc(-c3ccn[nH]3)c2n1 this time
17.3

Moving on to COc1ccc2cccc(CCNC(C)=O)c2c1
97.7

====

Test system: MARIMO;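 note: after 48 h exposure read by CellTiter-Glo luminescence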
assay-name: cell viability relative to vehicle control; higher = less cytotoxic
test-conditions: 10 µM; SRSF2 genotype: SRSF2 P95H/wt
property-label: cell viability (%)
Unit % implied. Number only.

1) Oc1c(Cl)cc(Cl)c2cccnc12 ... 21.6
2) Oc1nc(-c2ccc(C(F)(F)F)cc2)nc2c1CSCC2 ... 104
3) CC1(C)C=Cc2c(ccc3c2OC[C@@H](c2ccc(O)cc2O)C3)O1 ... 87.5
4) C=C[C@@](C)(/C=C/c1ccc(O)cc1)CCC=C(C)C ... 87.8
5) O=C1OC(C(O)CO)C([O-])=C1O.[Na+] (stereo not drawn) [Sodium erythorbate] ... 106

So what's the measured cell viability for this one? C[C@H](Cn1cnc2c(N)ncnc21)OCP(=O)(O)O
97.2

Then C[n+]1c2n(c(=O)c3ccccc31)CCc1c-2[nH]c2ccccc12 [Dehydroevodiamine] ?
88.7

How about OC[C@H]1O[C@@H](c2ccc(F)c(Cc3cc4ccccc4s3)c2)[C@H](O)[C@@H](O)[C@@H]1O ?
95.6

Let us now turn to O=c1nc(N2CCOCC2)oc2c(-c3cccc4c3sc3ccccc34)cccc12
93.2

Query C[C@]1(O)C[C@@H](O)[C@@H]2C=CO[C@@H](O[C@@H]3O[C@H](CO)[C@@H](O)[C@H](O)[C@H]3O)[C@@H]21 [Leonuride] next
101
